# method: 1H NMR stability / thiol reactivity of PrC-210 with ammonium acetate (disulfide formation)
# Assay type: physicochemical
# assaySetup: aqueous solution with ammonium acetate; ammonium acetate added to aqueous PrC-210 mono-thiol solution, pH 7.2 (FIG. 6A)
valueType: half-life (h)
Report as a plain number; the unit h is understood.

Lookup: Tell me the measured half-life of `CNCC(CS)CNC` , please.
Found: 3.1
